Source listed as patent US20230042936A1.

Listed here are compounds together with their documented IC50.
System Tested: CDK3/CycE1 (Homo sapiens)
Sequence (Q00526 whole entry): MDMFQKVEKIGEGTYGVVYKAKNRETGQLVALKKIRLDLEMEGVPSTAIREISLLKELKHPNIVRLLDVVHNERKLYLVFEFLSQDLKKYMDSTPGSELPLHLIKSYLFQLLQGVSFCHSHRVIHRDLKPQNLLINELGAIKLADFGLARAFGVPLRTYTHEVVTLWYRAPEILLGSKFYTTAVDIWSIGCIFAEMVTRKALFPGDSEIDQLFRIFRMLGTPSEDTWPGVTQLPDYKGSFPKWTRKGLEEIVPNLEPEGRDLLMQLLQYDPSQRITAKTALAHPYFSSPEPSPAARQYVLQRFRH
Sequence (P24864 whole entry partner): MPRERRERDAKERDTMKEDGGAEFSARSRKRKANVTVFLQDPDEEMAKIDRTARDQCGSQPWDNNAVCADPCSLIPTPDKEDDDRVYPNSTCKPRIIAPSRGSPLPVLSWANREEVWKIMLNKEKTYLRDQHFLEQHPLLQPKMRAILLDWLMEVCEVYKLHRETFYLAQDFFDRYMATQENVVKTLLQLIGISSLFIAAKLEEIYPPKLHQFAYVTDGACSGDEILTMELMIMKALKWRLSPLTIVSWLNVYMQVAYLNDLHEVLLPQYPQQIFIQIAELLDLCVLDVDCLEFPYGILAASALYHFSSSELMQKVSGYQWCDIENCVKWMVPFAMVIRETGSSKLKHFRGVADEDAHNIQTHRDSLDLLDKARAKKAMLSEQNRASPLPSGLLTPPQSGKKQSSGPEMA
Assay: Kinase profiling
Measurement Setup: 10 semi-logarithmic dilutions from 50 μM, singlicate
Parameter Measured: IC50 (nM)

| Compound | Observed |
| --- | --- |
| O=c1ccc2cnc(Nc3ccc(N4CCC(CCCO)CC4)cc3F)nc2n1[C@@H]1CC2CCC1C2 (stereo partly drawn) [PS002] | 17200 |
| O=c1ccc2cnc(Nc3ccc(N4CCC(OCC5(CO)COC5)CC4)cc3)nc2n1[C@@H]1CC2CCC1C2 (stereo partly drawn) [PS016] | 93.4 |
| O=c1ccc2cnc(Nc3ccc(N4CCC(CCCO)CC4)c(F)c3)nc2n1[C@@H]1CC2CCC1C2 (stereo partly drawn) [PS003] | 1130 |
| CC(=O)c1c(C)c2cnc(Nc3ccc(N4CCNCC4)cc3)nc2n([C@@H]2CC3CCC2C3)c1=O (stereo partly drawn) [PS010] | 700 |
| CC(O)CCC1CCN(c2ccc(Nc3ncc4ccc(=O)n([C@@H]5CC6CCC5C6)c4n3)cc2)CC1 (stereo partly drawn) [PS004] | 654 |
| CC(O)COC1CCN(c2ccc(Nc3ncc4ccc(=O)n([C@@H]5CC6CCC5C6)c4n3)cc2)CC1 (stereo partly drawn) [PS006] | 306 |

---

As an illustration, consider measured IC50 for molecules on DYRK1A (Homo sapiens, UniProt Q13627).

| Molecule | System Tested | Quantity Unit | Readout Relation | IC50 |
| --- | --- | --- | --- | --- |
| CC(=O)c1c(C)c2cnc(Nc3ccc(N4CCC(CCCO)CC4)cc3)nc2n([C@@H]2CC3CCC2C3)c1=O (stereo partly shown) | DYRK1A (Homo sapiens, UniProt Q13627) | µM | = | 11.8 |
| O=c1ccc2cnc(Nc3ccc(N4CCC(CCCO)CC4)cc3)nc2n1C1CC2CCC1C2 (stereo not shown) [PD-0183812, reference compound] | DYRK1A (Homo sapiens, UniProt Q13627) | µM | = | 31.9 |
| CC(=O)c1c(C)c2cnc(Nc3ccc(N4CCC(CCCO)CC4)cc3)nc2n(C2CCCC2)c1=O | DYRK1A (Homo sapiens, UniProt Q13627) | µM | > | 50 |
| CC(O)CCC1CCN(c2ccc(Nc3ncc4ccc(=O)n([C@@H]5CC6CCC5C6)c4n3)cc2)CC1 (stereo partly shown) | DYRK1A (Homo sapiens, UniProt Q13627) | µM | > | 50 |
| CC(O)COC1CCN(c2ccc(Nc3ncc4ccc(=O)n([C@@H]5CC6CCC5C6)c4n3)cc2)CC1 (stereo partly shown) | DYRK1A (Homo sapiens, UniProt Q13627) | µM | = | 46.8 |
| CN(C)C(=O)c1cc2cnc(Nc3ccc(N4CCNCC4)cn3)nc2n1C1CCCC1 [Ribociclib, reference compound] | DYRK1A (Homo sapiens, UniProt Q13627) | µM | = | 0.0145 |
| O=c1ccc2cnc(Nc3ccc(N4CCC(OCC5(CO)COC5)CC4)cc3)nc2n1[C@@H]1CC2CCC1C2 (stereo partly shown) | DYRK1A (Homo sapiens, UniProt Q13627) | µM | = | 28.8 |

---

Listed here are compounds together with their documented half-life.
Assay: Metabolic stability in microsomes
Format: in vitro ADME
Measurement Setup: human, 60-90 min test, read-out: Metabolic stability, Human microsomes: t1/2

| Compound | half-life |
| --- | --- |
| CC(=O)c1c(C)c2cnc(Nc3ccc(N4CCC(CCCO)CC4)cc3)nc2n(C2CCCC2)c1=O | 42 min |
| CC(=O)c1c(C)c2cnc(Nc3ccc(N4CCNCC4)cn3)nc2n(C2CCCC2)c1=O [Palbociclib, reference compound] | 58.8 min |
| CC(O)CCC1CCN(c2ccc(Nc3ncc4ccc(=O)n([C@@H]5CC6CCC5C6)c4n3)cc2)CC1 (stereo partly shown) | 34 min |
| CC(O)COC1CCN(c2ccc(Nc3ncc4ccc(=O)n([C@@H]5CC6CCC5C6)c4n3)cc2)CC1 (stereo partly shown) | 11.6 min |

---

Listed here are compounds together with their documented pIC50.
System Tested: CDK12wt/CycK (Homo sapiens, UniProt Q9NYV4)
Sequence (Q9NYV4 whole entry): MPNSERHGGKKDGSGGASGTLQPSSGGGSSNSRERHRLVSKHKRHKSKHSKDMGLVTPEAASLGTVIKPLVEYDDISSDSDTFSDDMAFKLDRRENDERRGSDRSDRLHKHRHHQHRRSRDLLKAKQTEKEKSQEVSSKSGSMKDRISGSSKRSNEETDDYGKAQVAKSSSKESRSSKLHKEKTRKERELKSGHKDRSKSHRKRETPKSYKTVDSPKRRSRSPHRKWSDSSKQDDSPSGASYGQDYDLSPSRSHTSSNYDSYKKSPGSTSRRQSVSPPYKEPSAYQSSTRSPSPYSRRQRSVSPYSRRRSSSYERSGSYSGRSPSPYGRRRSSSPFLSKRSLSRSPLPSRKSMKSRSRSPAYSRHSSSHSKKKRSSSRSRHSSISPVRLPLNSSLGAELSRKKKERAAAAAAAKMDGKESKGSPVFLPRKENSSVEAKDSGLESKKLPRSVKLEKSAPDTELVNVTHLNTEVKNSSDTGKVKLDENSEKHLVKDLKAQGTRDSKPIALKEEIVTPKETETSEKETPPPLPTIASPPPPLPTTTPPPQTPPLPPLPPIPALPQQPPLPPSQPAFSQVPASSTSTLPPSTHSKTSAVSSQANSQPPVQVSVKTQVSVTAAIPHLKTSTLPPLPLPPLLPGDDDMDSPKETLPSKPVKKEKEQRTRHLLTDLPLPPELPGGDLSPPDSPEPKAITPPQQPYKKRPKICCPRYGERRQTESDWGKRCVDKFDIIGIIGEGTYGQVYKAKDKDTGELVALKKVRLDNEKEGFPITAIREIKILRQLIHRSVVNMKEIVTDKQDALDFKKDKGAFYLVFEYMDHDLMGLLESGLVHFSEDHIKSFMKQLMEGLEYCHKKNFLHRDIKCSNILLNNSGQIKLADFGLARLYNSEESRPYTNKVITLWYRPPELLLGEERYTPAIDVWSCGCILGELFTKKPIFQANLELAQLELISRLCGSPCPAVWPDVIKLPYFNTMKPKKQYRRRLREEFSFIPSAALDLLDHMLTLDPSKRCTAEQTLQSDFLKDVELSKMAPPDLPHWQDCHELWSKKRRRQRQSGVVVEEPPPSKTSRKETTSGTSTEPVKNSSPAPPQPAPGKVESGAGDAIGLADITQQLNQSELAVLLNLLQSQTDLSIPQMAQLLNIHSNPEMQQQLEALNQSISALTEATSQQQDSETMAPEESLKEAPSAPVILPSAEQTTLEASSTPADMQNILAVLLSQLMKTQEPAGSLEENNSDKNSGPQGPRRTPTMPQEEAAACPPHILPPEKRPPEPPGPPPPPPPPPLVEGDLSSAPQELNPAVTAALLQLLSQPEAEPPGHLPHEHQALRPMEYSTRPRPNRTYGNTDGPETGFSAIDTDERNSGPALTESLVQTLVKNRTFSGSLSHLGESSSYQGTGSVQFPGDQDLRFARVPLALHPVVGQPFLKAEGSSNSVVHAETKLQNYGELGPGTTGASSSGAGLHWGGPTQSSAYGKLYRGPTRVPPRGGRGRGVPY
Sequence (O75909 whole entry partner): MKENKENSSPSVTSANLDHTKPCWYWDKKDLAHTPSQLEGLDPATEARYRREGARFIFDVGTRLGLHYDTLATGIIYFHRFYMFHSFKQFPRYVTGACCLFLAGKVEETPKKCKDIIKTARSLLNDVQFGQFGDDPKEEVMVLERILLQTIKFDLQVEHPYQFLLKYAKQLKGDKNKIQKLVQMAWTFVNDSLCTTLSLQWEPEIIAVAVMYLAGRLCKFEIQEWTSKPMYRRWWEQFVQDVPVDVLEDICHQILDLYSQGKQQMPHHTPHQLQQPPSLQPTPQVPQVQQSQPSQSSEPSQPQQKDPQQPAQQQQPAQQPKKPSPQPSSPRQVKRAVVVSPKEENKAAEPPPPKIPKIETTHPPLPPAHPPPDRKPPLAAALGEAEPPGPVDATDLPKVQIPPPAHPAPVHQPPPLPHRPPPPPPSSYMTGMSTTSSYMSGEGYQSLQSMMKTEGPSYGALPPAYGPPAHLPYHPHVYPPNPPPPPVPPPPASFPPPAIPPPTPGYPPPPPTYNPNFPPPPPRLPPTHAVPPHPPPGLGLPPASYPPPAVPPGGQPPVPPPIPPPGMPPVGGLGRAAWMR
Assay: Kinase profiling
Measurement Setup: 10 semi-logarithmic dilutions from 50 μM, singlicate
pIC50: −log10 of the molar value.

| Compound | pIC50 |
| --- | --- |
| CC(=O)c1c(C)c2cnc(Nc3ccc(N4CCC(CCCO)CC4)cc3)nc2n(C2CCCC2)c1=O [PS009] | 4.76 |
| O=c1ccc2cnc(Nc3ccc(N4CCC(OCC5(CO)COC5)CC4)cc3)nc2n1[C@@H]1CC2CCC1C2 (some centres unmarked) [PS016] | 6.47 |
| O=c1ccc2cnc(Nc3ccc(N4CCNCC4)cc3)nc2n1[C@@H]1CC2CCC1C2 (some centres unmarked) [PS007] | 7.59 |
| CC(=O)c1c(C)c2cnc(Nc3ccc(N4CCNCC4)cc3)nc2n([C@@H]2CC3CCC2C3)c1=O (some centres unmarked) [PS010] | 6.10 |
| O=c1ccc2cnc(Nc3ccc(N4CCC(CCCO)CC4)c(F)c3)nc2n1[C@@H]1CC2CCC1C2 (some centres unmarked) [PS003] | 5.50 |

---

Listed here are molecules together with their documented pIC50.
System Tested: UniProt Q92630
Sequence (Q92630 1-601): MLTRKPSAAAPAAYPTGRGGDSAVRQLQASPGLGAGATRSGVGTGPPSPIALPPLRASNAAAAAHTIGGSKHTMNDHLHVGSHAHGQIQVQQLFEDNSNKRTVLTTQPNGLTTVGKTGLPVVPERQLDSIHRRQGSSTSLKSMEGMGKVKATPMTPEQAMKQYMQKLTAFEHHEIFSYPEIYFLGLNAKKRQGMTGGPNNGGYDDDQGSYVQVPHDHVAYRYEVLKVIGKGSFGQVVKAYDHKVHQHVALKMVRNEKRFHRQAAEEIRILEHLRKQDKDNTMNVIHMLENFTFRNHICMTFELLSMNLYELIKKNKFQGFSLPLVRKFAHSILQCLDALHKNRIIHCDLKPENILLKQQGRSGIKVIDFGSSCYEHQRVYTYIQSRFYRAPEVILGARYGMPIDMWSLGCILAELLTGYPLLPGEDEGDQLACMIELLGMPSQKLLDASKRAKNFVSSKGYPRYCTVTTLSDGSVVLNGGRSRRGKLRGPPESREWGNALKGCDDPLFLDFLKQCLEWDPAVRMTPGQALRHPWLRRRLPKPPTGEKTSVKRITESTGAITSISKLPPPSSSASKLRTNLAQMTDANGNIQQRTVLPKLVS
Assay: Kinase profiling
Format: biochemical
Measurement Setup: 10 semi-logarithmic dilutions from 50 μM, singlicate; read-out: IC50 DYRK2
pIC50: −log10 of the molar value.

| Molecule | Readout Relation | pIC50 |
| --- | --- | --- |
| CC(O)CCN1CCN(c2ccc(Nc3ncc4ccc(=O)n([C@@H]5CC6CCC5C6)c4n3)cc2)CC1 (stereo partly shown) | = | 5.33 |
| CC(O)COC1CCN(c2ccc(Nc3ncc4ccc(=O)n([C@@H]5CC6CCC5C6)c4n3)cc2)CC1 (stereo partly shown) | < | 4.30 |
| CC(=O)c1c(C)c2cnc(Nc3ccc(N4CCNCC4)cc3)nc2n([C@@H]2CC3CCC2C3)c1=O (stereo partly shown) | = | 5.90 |
| O=c1ccc2cnc(Nc3ccc(N4CCC(CCCO)CC4)c(F)c3)nc2n1[C@@H]1CC2CCC1C2 (stereo partly shown) | < | 4.30 |

---

Listed here are compounds together with their documented pIC50.
System Tested: CDK6/CycD3 (Homo sapiens, UniProt Q00534)
Sequence (Q00534 whole entry): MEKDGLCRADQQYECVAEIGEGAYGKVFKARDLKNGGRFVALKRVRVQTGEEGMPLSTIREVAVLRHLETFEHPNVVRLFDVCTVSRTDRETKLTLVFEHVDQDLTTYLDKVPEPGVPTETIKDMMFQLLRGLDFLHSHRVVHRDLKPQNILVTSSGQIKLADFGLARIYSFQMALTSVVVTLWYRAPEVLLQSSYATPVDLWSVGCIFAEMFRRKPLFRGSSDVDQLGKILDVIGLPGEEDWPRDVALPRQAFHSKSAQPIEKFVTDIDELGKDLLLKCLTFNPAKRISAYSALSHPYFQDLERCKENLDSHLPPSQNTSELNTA
Sequence (P30281 whole entry partner): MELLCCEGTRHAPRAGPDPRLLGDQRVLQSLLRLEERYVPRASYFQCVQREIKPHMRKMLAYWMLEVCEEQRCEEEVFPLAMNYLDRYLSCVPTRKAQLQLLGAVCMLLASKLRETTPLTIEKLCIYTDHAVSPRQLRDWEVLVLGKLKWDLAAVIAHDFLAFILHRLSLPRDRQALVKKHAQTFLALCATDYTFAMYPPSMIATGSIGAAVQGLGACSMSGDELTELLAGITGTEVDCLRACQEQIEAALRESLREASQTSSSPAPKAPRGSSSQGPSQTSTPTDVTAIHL
Assay: Kinase profiling
Measurement Setup: 10 semi-logarithmic dilutions from 50 μM, singlicate
pIC50: −log10 of the molar value.

| Compound | System Tested | pIC50 |
| --- | --- | --- |
| CC(=O)c1c(C)c2cnc(Nc3ccc(N4CCNCC4)cc3)nc2n([C@@H]2CC3CCC2C3)c1=O (stereo partly drawn) | CDK6/CycD3 (Homo sapiens, UniProt Q00534) | 7.67 |
| CC(O)COC1CCN(c2ccc(Nc3ncc4ccc(=O)n([C@@H]5CC6CCC5C6)c4n3)cc2)CC1 (stereo partly drawn) | CDK6/CycD3 (Homo sapiens, UniProt Q00534) | 6.97 |
| CC(=O)c1c(C)c2cnc(Nc3ccc(N4CCC(CCCO)CC4)cc3)nc2n(C2CCCC2)c1=O | CDK6/CycD3 (Homo sapiens, UniProt Q00534) | 6.90 |

---

System Tested: CDK7/CycH/MAT1 (Homo sapiens)
Sequence (P50613 whole entry): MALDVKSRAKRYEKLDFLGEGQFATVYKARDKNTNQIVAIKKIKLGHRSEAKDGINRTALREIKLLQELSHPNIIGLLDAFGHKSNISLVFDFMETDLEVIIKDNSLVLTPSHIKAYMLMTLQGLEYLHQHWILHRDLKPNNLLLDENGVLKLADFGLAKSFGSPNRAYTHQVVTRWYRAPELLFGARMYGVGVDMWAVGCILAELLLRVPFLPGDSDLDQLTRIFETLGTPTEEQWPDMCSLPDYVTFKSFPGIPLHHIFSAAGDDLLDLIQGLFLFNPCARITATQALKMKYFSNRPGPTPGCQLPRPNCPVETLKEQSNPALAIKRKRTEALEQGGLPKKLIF
Sequence (P51946 whole entry partner): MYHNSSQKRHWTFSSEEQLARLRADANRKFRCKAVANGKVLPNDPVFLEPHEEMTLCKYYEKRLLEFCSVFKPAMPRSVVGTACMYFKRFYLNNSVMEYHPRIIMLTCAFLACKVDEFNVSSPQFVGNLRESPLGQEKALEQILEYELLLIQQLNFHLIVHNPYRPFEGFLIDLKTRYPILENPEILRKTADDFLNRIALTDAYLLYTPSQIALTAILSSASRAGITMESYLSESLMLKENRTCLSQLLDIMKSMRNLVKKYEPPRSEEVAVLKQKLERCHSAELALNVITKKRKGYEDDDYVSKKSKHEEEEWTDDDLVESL
Sequence (P51948 whole entry partner): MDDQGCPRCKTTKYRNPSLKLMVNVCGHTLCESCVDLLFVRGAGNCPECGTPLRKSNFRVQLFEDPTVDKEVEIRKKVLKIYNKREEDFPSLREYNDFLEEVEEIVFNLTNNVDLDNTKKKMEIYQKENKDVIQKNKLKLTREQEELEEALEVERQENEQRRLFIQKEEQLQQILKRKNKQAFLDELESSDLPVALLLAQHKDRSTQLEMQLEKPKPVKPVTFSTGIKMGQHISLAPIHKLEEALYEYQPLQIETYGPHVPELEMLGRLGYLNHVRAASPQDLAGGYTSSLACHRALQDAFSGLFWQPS
Assay: Kinase profiling
Measurement Setup: 10 semi-logarithmic dilutions from 50 μM, singlicate
Heads up, the class ranges for IC50 are band 1 = under 2 µM, band 2 = from 2 µM up to 20 µM, band 3 = 20 µM and over

| Molecule | Assigned Class |
| --- | --- |
| CC(=O)c1c(C)c2cnc(Nc3ccc(N4CCC(CCCO)CC4)cc3)nc2n(C2CCCC2)c1=O | band 3 |
| CC(O)COC1CCN(c2ccc(Nc3ncc4ccc(=O)n([C@@H]5CC6CCC5C6)c4n3)cc2)CC1 (stereo partly drawn) | band 2 |
| CN(C)C(=O)c1cc2cnc(Nc3ccc(N4CCNCC4)cn3)nc2n1C1CCCC1 [Ribociclib, reference compound] | band 2 |
| CC(O)CCC1CCN(c2ccc(Nc3ncc4ccc(=O)n([C@@H]5CC6CCC5C6)c4n3)cc2)CC1 (stereo partly drawn) | band 3 |
| O=c1ccc2cnc(Nc3ccc(N4CCC(CCCO)CC4)cc3F)nc2n1[C@@H]1CC2CCC1C2 (stereo partly drawn) | band 3 |
| O=c1ccc2cnc(Nc3ccc(N4CCC(CCCO)CC4)cc3)nc2n1C1CC2CCC1C2 (stereo not drawn) [PD-0183812, reference compound] | band 3 |
| CC(=O)c1c(C)c2cnc(Nc3ccc(N4CCC(CCCO)CC4)cc3)nc2n([C@@H]2CC3CCC2C3)c1=O (stereo partly drawn) | band 2 |
| CC(O)CCN1CCN(c2ccc(Nc3ncc4ccc(=O)n([C@@H]5CC6CCC5C6)c4n3)cc2)CC1 (stereo partly drawn) | band 1 |
| O=c1ccc2cnc(Nc3ccc(N4CCC(OCC5(CO)COC5)CC4)cc3)nc2n1[C@@H]1CC2CCC1C2 (stereo partly drawn) | band 2 |
| O=c1ccc2cnc(Nc3ccc(N4CCNCC4)cc3)nc2n1[C@@H]1CC2CCC1C2 (stereo partly drawn) | band 1 |
